// data source = the Kinase Knowledgebase extract (Sharma et al. 2016)

Non-standard residues stand in square brackets, D forms with d. Residues, ends and D or L forms follow the SMILES beside them. *: point of attachment. pY = N[C@@H](Cc1ccc(OP(=O)(O)O)cc1)C(=O)O; O(2-Aminobenzoyl) = Nc1ccccc1C(=O)O*; X12 = Nc1ccccc1C(=O)OCCN*; Ac5c = NC1(C(=O)O)CCCC1; X6 = Nc1cccc(C(=O)O*)c1
Record type: IC50 measurement. Applies to: EGFR (UniProt P00533)
Give just the number in nM; leave the unit off.

Past entries and their recorded results:
compound	scaleUnit	IC50
CC[C@H](C)[C@H](NC(=O)[C@H](CC(N)=O)NC(=O)[C@@H](N)CCC(N)=O)C(=O)N[C@@H](Cc1ccc(OP(=O)(O)O)cc1)C(=O)N[C@@H](CCC(=O)O)C(=O)NCCOC(=O)c1ccccc1N (H-QNI[pY]E-X12)	nM	130
CC[C@H](C)[C@H](NC(=O)[C@H](CC(N)=O)NC(=O)[C@@H](N)CCC(N)=O)C(=O)N[C@@H](Cc1ccc(OP(=O)(O)O)cc1)C(=O)N[C@@H](CCC(=O)O)C(=O)OC(=O)c1cccc(N)c1 (H-QNI[pY]E-X6)	nM	57
NC(=O)C[C@H](N)C(=O)NC1(C(=O)N[C@@H](Cc2ccc(OP(=O)(O)O)cc2)C(=O)N[C@@H](CCC(=O)O)C(=O)OC(=O)c2ccccc2N)CCCC1 (H-N[Ac5c][pY]E-{O(2-Aminobenzoyl)})	nM	64

Now for the compound whose IC50 we want.
Output reported IC50 of the compound CC[C@H](C)[C@H](NC(=O)[C@@H](N)CC(N)=O)C(=O)N[C@@H](Cc1ccc(OP(=O)(O)O)cc1)C(=O)N[C@@H](Cc1ccccc1)C(=O)OC(=O)c1ccccc1N (H-NI[pY]F-{O(2-Aminobenzoyl)}) on EGFR (UniProt P00533).
Sequence (P00533 whole entry, looked up): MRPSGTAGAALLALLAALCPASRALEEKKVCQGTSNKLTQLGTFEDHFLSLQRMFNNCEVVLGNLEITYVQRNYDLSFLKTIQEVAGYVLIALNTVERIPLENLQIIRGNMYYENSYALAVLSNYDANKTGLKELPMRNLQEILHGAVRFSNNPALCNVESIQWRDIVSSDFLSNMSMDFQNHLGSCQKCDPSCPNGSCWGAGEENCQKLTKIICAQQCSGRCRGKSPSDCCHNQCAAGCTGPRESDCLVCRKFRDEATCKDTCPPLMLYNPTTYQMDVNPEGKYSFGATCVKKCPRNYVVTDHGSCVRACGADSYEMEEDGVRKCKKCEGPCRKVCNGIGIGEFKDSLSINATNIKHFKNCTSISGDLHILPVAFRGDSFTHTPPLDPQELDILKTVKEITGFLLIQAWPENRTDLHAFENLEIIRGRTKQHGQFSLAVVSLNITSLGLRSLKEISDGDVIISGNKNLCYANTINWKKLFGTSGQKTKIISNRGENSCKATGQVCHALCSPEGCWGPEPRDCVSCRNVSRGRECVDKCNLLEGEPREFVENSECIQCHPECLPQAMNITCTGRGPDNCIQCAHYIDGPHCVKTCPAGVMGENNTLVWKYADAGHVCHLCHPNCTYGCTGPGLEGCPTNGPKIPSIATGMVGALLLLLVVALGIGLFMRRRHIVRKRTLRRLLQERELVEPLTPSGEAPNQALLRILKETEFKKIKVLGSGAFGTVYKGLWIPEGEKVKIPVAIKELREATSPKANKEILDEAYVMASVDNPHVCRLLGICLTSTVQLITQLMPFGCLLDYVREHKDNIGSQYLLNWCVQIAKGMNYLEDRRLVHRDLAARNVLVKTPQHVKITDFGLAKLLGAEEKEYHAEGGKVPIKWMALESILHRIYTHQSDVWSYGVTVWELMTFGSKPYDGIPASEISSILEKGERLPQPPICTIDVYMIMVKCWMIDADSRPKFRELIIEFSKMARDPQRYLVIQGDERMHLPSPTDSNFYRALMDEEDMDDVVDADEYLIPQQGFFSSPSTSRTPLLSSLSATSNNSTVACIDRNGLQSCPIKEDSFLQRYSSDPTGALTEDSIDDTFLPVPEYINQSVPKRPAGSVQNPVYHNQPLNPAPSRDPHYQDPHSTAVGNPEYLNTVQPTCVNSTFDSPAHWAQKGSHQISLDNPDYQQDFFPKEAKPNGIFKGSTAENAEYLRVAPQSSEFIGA
54
